conditions: in ethyl acetate, 303.15 K
propertyMeasured: solubility (mole fraction)

givenSmiles: O=C(O)c1ccc(Cl)cc1Cl
observedMeasurement: 0.0484

====

details: in ethanol, 278.15 K

givenSmiles: O=C(O)c1ccc(Cl)cc1Cl
solubility (mole fraction): 0.04

====

settings: in acetonitrile, 308.15 K
propertyMeasured: solubility (mole fraction)

givenSmiles: O=C(O)c1ccc(Cl)cc1Cl
propertyMeasured: solubility (mole fraction)
observedMeasurement: 0.00929

====

conditions: in isobutanol, 298.15 K
propertyMeasured: solubility (mole fraction)

givenSmiles: O=C(O)c1ccc(Cl)cc1Cl
propertyMeasured: solubility (mole fraction)
observedMeasurement: 0.0483

====

details: in isobutanol, 318.15 K

givenSmiles: O=C(O)c1ccc(Cl)cc1Cl
solubility (mole fraction): 0.0719
